target: T1, Human CD137 ECD (human); experiment: single mutant vs template dBBDu183H
T1 construct: also called 4-1BB
T1 sequence (chain, as listed by the source limits assumed): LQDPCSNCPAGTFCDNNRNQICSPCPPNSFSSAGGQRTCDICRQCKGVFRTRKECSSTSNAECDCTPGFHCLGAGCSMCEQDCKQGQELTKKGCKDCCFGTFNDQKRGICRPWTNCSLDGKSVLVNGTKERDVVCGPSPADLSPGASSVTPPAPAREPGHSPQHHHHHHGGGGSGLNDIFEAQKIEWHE
Items are presented alongside their recorded fold change of affinity.

{"columns": ["binder", "fold change of affinity [fold]"],
 "data": [
  ["H183/L072 VH M34I (antibody, name in Kabat numbering, V domains shown) VH: QVQLVESGGGLVQPGRSLRLSCAASGFTFSNAWIHWVRQAPGKGLEWVAQIKDKGNAYAAYYAPSVKGRFTISRDDSKNSIYLQMNSLKTEDTAVYYCHYVHYASASTVLPAFGVDAWGQGTTVTVSS VL: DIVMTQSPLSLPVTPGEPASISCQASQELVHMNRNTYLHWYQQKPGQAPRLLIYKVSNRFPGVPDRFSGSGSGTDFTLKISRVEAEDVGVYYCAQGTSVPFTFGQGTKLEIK", 1.4],
  ["H183/L072 VH L100dI (antibody, name in Kabat numbering, V domains shown) VH: QVQLVESGGGLVQPGRSLRLSCAASGFTFSNAWMHWVRQAPGKGLEWVAQIKDKGNAYAAYYAPSVKGRFTISRDDSKNSIYLQMNSLKTEDTAVYYCHYVHYASASTVIPAFGVDAWGQGTTVTVSS VL: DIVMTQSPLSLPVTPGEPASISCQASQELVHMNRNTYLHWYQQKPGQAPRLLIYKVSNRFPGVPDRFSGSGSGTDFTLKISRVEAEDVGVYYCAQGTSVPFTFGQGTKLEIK", 0],
  ["H183/L072 VH G52cV (antibody, name in Kabat numbering, V domains shown) VH: QVQLVESGGGLVQPGRSLRLSCAASGFTFSNAWMHWVRQAPGKGLEWVAQIKDKVNAYAAYYAPSVKGRFTISRDDSKNSIYLQMNSLKTEDTAVYYCHYVHYASASTVLPAFGVDAWGQGTTVTVSS VL: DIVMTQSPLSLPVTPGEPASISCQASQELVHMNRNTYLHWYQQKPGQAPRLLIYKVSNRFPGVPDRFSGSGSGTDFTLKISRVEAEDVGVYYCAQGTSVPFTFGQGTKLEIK", 0.7],
  ["H183/L072 VH H93P (antibody, name in Kabat numbering, V domains shown) VH: QVQLVESGGGLVQPGRSLRLSCAASGFTFSNAWMHWVRQAPGKGLEWVAQIKDKGNAYAAYYAPSVKGRFTISRDDSKNSIYLQMNSLKTEDTAVYYCPYVHYASASTVLPAFGVDAWGQGTTVTVSS VL: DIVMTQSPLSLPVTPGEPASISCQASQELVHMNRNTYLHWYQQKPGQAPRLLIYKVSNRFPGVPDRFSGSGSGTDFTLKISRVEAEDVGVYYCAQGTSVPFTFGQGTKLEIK", 0],
  ["H183/L072 VH Y59A (antibody, name in Kabat numbering, V domains shown) VH: QVQLVESGGGLVQPGRSLRLSCAASGFTFSNAWMHWVRQAPGKGLEWVAQIKDKGNAYAAYAAPSVKGRFTISRDDSKNSIYLQMNSLKTEDTAVYYCHYVHYASASTVLPAFGVDAWGQGTTVTVSS VL: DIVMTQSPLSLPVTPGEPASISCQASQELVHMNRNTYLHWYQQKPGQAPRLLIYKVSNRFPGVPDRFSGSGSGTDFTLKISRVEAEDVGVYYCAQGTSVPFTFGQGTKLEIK", 0.7],
  ["H183/L072 VH G65A (antibody, name in Kabat numbering, V domains shown) VH: QVQLVESGGGLVQPGRSLRLSCAASGFTFSNAWMHWVRQAPGKGLEWVAQIKDKGNAYAAYYAPSVKARFTISRDDSKNSIYLQMNSLKTEDTAVYYCHYVHYASASTVLPAFGVDAWGQGTTVTVSS VL: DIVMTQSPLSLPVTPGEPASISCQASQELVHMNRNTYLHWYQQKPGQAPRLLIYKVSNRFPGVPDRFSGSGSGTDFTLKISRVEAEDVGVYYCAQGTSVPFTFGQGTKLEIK", 1.2],
  ["H183/L072 VH Y59H (antibody, name in Kabat numbering, V domains shown) VH: QVQLVESGGGLVQPGRSLRLSCAASGFTFSNAWMHWVRQAPGKGLEWVAQIKDKGNAYAAYHAPSVKGRFTISRDDSKNSIYLQMNSLKTEDTAVYYCHYVHYASASTVLPAFGVDAWGQGTTVTVSS VL: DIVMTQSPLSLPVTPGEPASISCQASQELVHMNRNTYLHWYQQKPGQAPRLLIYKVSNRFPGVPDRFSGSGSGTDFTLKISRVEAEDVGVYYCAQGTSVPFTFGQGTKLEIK", 0.8],
  ["H183/L072 VH A54D (antibody, name in Kabat numbering, V domains shown) VH: QVQLVESGGGLVQPGRSLRLSCAASGFTFSNAWMHWVRQAPGKGLEWVAQIKDKGNDYAAYYAPSVKGRFTISRDDSKNSIYLQMNSLKTEDTAVYYCHYVHYASASTVLPAFGVDAWGQGTTVTVSS VL: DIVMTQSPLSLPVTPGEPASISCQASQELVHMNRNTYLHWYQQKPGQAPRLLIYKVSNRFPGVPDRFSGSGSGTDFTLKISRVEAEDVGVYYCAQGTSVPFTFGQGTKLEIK", 1.1],
  ["H183/L072 VH V95L (antibody, name in Kabat numbering, V domains shown) VH: QVQLVESGGGLVQPGRSLRLSCAASGFTFSNAWMHWVRQAPGKGLEWVAQIKDKGNAYAAYYAPSVKGRFTISRDDSKNSIYLQMNSLKTEDTAVYYCHYLHYASASTVLPAFGVDAWGQGTTVTVSS VL: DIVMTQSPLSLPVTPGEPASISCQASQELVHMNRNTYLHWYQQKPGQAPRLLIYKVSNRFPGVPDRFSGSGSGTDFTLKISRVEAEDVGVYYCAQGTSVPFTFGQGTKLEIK", 0.2],
  ["H183/L072 VH L100dM (antibody, name in Kabat numbering, V domains shown) VH: QVQLVESGGGLVQPGRSLRLSCAASGFTFSNAWMHWVRQAPGKGLEWVAQIKDKGNAYAAYYAPSVKGRFTISRDDSKNSIYLQMNSLKTEDTAVYYCHYVHYASASTVMPAFGVDAWGQGTTVTVSS VL: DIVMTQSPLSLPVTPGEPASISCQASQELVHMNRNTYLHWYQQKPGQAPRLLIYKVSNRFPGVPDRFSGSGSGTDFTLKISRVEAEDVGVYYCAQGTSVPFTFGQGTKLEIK", 0.9]
]}
